Test system: E. coli ATCC 25922
Assay type: cell-based, Escherichia coli
run_conditions: MHB medium pH 7.4, 24 h, 37 °C, 100 μL, 5 × 10^5 CFU/mL, OD 620 nm, lowest concentration with 0% growth, mean of 3 samples
assay_endpoint: MIC, E. coli ATCC 25922 (µg/mL)
One number for each entry, in µg/mL.

Solved entries (count: 4):
[
  {
    "entry_smiles": "CC(C)NC(=O)N[C@H](CNC(=O)N[C@H](CNC(=O)N[C@H](CNC(=O)N[C@H](CNC(=O)N[C@@H](CCCNC(=N)N)CNC(=O)N[C@H](CNC(=O)N[C@@H](CCCNC(=N)N)CNC(=O)N[C@H](CCC(N)=O)C(C)C)Cc1c[nH]c2ccccc12)C(C)C)Cc1c[nH]c2ccccc12)Cc1c[nH]cn1)C(C)C",
    "target_system": "E. coli ATCC 25922",
    "scale_unit": "µg/mL",
    "MIC, E. coli ATCC 25922": 6.25
  },
  {
    "entry_smiles": "CC(C)NC(=O)N[C@@H](CCCNC(=N)N)CNC(=O)N[C@H](CNC(=O)N[C@H](CNC(=O)N[C@H](CNC(=O)N[C@H](CNC(=O)N[C@H](CNC(=O)N[C@H](CNC(=O)N[C@@H](CCCNC(=N)N)CNC(=O)N[C@H](CCC(N)=O)C(C)C)Cc1c[nH]c2ccccc12)Cc1c[nH]cn1)C(C)C)Cc1c[nH]c2ccccc12)Cc1c[nH]cn1)C(C)C",
    "target_system": "E. coli ATCC 25922",
    "scale_unit": "µg/mL",
    "MIC, E. coli ATCC 25922": 6.25
  },
  {
    "entry_smiles": "CC(C)[C@H](N)CNC(=O)N[C@H](CNC(=O)N[C@H](CNC(=O)N[C@H](CNC(=O)N[C@@H](CCCNC(=N)N)CNC(=O)N[C@H](CNC(=O)N[C@@H](CCCNC(=N)N)CNC(=O)N[C@H](CCC(N)=O)C(C)C)Cc1c[nH]c2ccccc12)C(C)C)Cc1c[nH]c2ccccc12)Cc1c[nH]cn1",
    "target_system": "E. coli ATCC 25922",
    "scale_unit": "µg/mL",
    "MIC, E. coli ATCC 25922": 12.5
  },
  {
    "entry_smiles": "CC(C)NC(=O)N[C@H](CNC(=O)N[C@@H](CCCNC(=N)N)CNC(=O)N[C@H](CNC(=O)N[C@H](CNC(=O)N[C@@H](CCCNC(=N)N)CNC(=O)N[C@H](CNC(=O)N[C@@H](CCCNC(=N)N)CNC(=O)N[C@H](CCC(N)=O)C(C)C)Cc1c[nH]c2ccccc12)C(C)C)Cc1c[nH]c2ccccc12)C(C)C",
    "target_system": "E. coli ATCC 25922",
    "scale_unit": "µg/mL",
    "MIC, E. coli ATCC 25922": 6.25
  }
]

# input for lookup
Task: Could you tell me which MIC, E. coli ATCC 25922 is on file for `CC(C)NC(=O)N[C@H](CNC(=O)N[C@H](CNC(=O)N[C@H](CNC(=O)N[C@H](CNC(=O)N[C@H](CNC(=O)N[C@H](CNC(=O)N[C@@H](CCCNC(=N)N)CNC(=O)N[C@H](CCC(N)=O)C(C)C)Cc1c[nH]c2ccccc12)Cc1c[nH]cn1)C(C)C)Cc1c[nH]c2ccccc12)Cc1c[nH]cn1)C(C)C` ?
Output: 12.5

---

I'd appreciate it if you could supply MIC, P. aeruginosa ATCC 27853 values for the items below.
System: P. aeruginosa ATCC 27853
Assay type: cell-based, Pseudomonas aeruginosa
run_conditions: MHB medium pH 7.4, 24 h, 37 °C, 100 μL, 5 × 10^5 CFU/mL, OD 620 nm, lowest concentration with 0% growth, mean of 3 samples
Give bare numbers, in µg/mL.

[
  {
    "entry_smiles": "CC(C)NC(=O)N[C@H](CNC(=O)N[C@@H](CCCNC(=N)N)CNC(=O)N[C@H](CNC(=O)N[C@H](CNC(=O)N[C@@H](CCCNC(=N)N)CNC(=O)N[C@H](CNC(=O)N[C@@H](CCCNC(=N)N)CNC(=O)N[C@H](CCC(N)=O)C(C)C)Cc1c[nH]c2ccccc12)C(C)C)Cc1c[nH]c2ccccc12)C(C)C",
    "scale_unit": "µg/mL",
    "value_observed": 12.5
  },
  {
    "entry_smiles": "CC(C)[C@H](N)CNC(=O)N[C@H](CNC(=O)N[C@H](CNC(=O)N[C@H](CNC(=O)N[C@@H](CCCNC(=N)N)CNC(=O)N[C@H](CNC(=O)N[C@@H](CCCNC(=N)N)CNC(=O)N[C@H](CCC(N)=O)C(C)C)Cc1c[nH]c2ccccc12)C(C)C)Cc1c[nH]c2ccccc12)Cc1c[nH]cn1",
    "scale_unit": "µg/mL",
    "value_observed": 12.5
  },
  {
    "entry_smiles": "CC(C)NC(=O)N[C@H](CNC(=O)N[C@H](CNC(=O)N[C@H](CNC(=O)N[C@H](CNC(=O)N[C@H](CNC(=O)N[C@H](CNC(=O)N[C@@H](CCCNC(=N)N)CNC(=O)N[C@H](CCC(N)=O)C(C)C)Cc1c[nH]c2ccccc12)Cc1c[nH]cn1)C(C)C)Cc1c[nH]c2ccccc12)Cc1c[nH]cn1)C(C)C",
    "scale_unit": "µg/mL",
    "value_observed": 50
  },
  {
    "entry_smiles": "CC(C)NC(=O)N[C@H](CNC(=O)N[C@H](CNC(=O)N[C@H](CNC(=O)N[C@H](CNC(=O)N[C@@H](CCCNC(=N)N)CNC(=O)N[C@H](CNC(=O)N[C@@H](CCCNC(=N)N)CNC(=O)N[C@H](CCC(N)=O)C(C)C)Cc1c[nH]c2ccccc12)C(C)C)Cc1c[nH]c2ccccc12)Cc1c[nH]cn1)C(C)C",
    "scale_unit": "µg/mL",
    "value_observed": 25
  }
]

# input for lookup
Task: Could you tell me which MIC, P. aeruginosa ATCC 27853 is on file for `CC(C)NC(=O)N[C@@H](CCCNC(=N)N)CNC(=O)N[C@H](CNC(=O)N[C@H](CNC(=O)N[C@H](CNC(=O)N[C@H](CNC(=O)N[C@H](CNC(=O)N[C@H](CNC(=O)N[C@@H](CCCNC(=N)N)CNC(=O)N[C@H](CCC(N)=O)C(C)C)Cc1c[nH]c2ccccc12)Cc1c[nH]cn1)C(C)C)Cc1c[nH]c2ccccc12)Cc1c[nH]cn1)C(C)C` ?
Output: 50
